# assayed.system: Induced myeloid leukemia cell differentiation protein Mcl-1 (Homo sapiens) (UniProt Q07820)
# Sequence (Q07820 whole entry, looked up): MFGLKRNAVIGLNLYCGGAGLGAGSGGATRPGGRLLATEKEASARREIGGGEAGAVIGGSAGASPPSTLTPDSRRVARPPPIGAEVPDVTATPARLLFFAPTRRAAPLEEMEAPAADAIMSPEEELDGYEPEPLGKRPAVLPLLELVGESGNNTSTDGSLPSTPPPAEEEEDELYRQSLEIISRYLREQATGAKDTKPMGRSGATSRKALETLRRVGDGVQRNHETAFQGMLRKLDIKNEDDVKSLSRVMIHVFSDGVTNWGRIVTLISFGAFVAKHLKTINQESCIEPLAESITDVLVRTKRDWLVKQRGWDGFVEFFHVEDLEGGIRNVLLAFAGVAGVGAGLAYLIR
# measurement.description: disruptors of Mcl-1 and Bid BH3 peptide – biochemical, TR-FRET, 1536-well, primary screen (AID 1021);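 also: His-tagged Mcl-1 with europium anti-His antibody binding Bid BH3 peptide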
# conditions: TR-FRET Mcl-1/Bid-Dy647 peptide binding, at 21.7 µM, stronger effect = higher value
Among all 220,000 compounds or so, about 2,100 (0.95%) were called active. What follows is part of a selection rich in actives, with near analogues and random picks from the rest.
Output satisfied for inhibition not less than -30%; output not satisfied otherwise.

# input Is it the case that CC(Sc1nnc2c(n1)C1CCC2(C)C1(C)C)C(=O)Nc1ccccc1 (stereo not given) has inhibition reaching or exceeding -30%?
# output satisfied

# input For this compound, is measured inhibition -30% or higher? `Cc1cccc(NC(=S)NC23CN4CN(CN(C4)C2)C3)c1`
# output not satisfied

# input Hi team, for `Cc1nc2nc[nH]n2c(=O)c1C/C=C/c1ccccc1` , is the recorded inhibition at or above -30%?
# output satisfied

# input Threshold query (inhibition >= -30%) on `Cc1ccsc1/C=C1\SC(N2CCOCC2)=NC1=O`
# output satisfied

# input State whether the measured inhibition reaches -30%, counting equality as reaching it, for `CCS(=O)(=O)c1ccc(C(=O)NC)c(Cl)c1Cl`
# output satisfied
